Taken from ChEMBL document CHEMBL3885861.

species: Rattus norvegicus; experiment: Open TG-GATES - Regimen: Daily Repeat; type: toxicity, organism-based, Sprague-Dawley; set-up: regimen Daily Repeat, gender Male, age 6 weeks; conditions: in vivo, po, 300 mg/kg, 72 h, tissue Blood, route gavage, dose level Middle, time 3 day
Could you please report measured Neu for the items listed next?
Show the value, then the unit it is measured in.

// known answers, use as guide
- Compound: "CCCCNC(=O)NS(=O)(=O)c1ccc(C)cc1 [TOLBUTAMIDE]"
  Neu: "15.6%"
- Compound: "CC(=O)[C@@]1(O)CC[C@H]2[C@@H]3C=C(Cl)C4=CC(=O)CC[C@]4(C)[C@H]3CC[C@@]21C [CHLORMADINONE]"
  Neu: "18.4%"
- Compound: "CC(S)C(=O)NCC(=O)O (centres undefined) [TIOPRONIN]"
  Neu: "17.2%"

Then there is this compound:
Briefly, Neu measured for O=C(O)c1ccccc1Nc1ccccc1 [FENAMIC ACID] : 21.8%

----------
species on record: Rattus norvegicus; experiment: Open TG-GATES - Regimen: Single; type: toxicity, organism-based, Sprague-Dawley; design: regimen Single, gender Male, age 6 weeks; conditions: in vivo, po, 0 mg/kg, 9 h, tissue Blood, route gavage, dose level Control
Observed property: MCHC (%)
Answers are plain numbers, in %.

// input: 8 molecules below; output: MCHC for each
1. CN(C)CCCN1c2ccccc2Sc2ccc(Cl)cc21
2. CC(S)C(=O)NCC(=O)O (stereo not drawn)
3. CN(C/C=C/C#CC(C)(C)C)Cc1cccc2ccccc12
4. CCCCNC(=O)NS(=O)(=O)c1ccc(C)cc1 [TOLBUTAMIDE]
5. O=C(O)c1ccccc1Nc1ccccc1
6. NS(=O)(=O)c1cc(C(=O)O)c(NCc2ccco2)cc1Cl [FUROSEMIDE]
7. CC(=O)[C@@]1(O)CC[C@H]2[C@@H]3C=C(Cl)C4=CC(=O)CC[C@]4(C)[C@H]3CC[C@@]21C
8. CCN(CC)C(=S)SSC(=S)N(CC)CC

Result block:
1. 34.5
2. 32.1
3. 33.5
4. 33
5. 33.1
6. 33.2
7. 32.3
8. 32.3

// input: 5 molecules below; output: MCHC for each
1. Nc1ccc(Cc2ccc(N)cc2)cc1
2. COc1ccc([C@@H]2Sc3ccccc3N(CCN(C)C)C(=O)[C@@H]2OC(C)=O)cc1
3. O=c1ccc2ccccc2o1
4. CN(CCOc1ccc(CC2SC(=O)NC2=O)cc1)c1ccccn1.O=C(O)/C=C\C(=O)O (stereo not drawn) [ROSIGLITAZONE MALEATE]
5. CCO

Result block:
1. 34.2
2. 32.3
3. 33.3
4. 32.9
5. 33.7

----------
Could you please report measured A/G for the items listed next?
species: Rattus norvegicus; test: Open TG-GATES - Regimen: Single; type: toxicity, organism-based, Sprague-Dawley; set-up: regimen Single, gender Male, age 6 weeks; conditions: in vivo, po, 0 mg/kg, 24 h, tissue Plasma, route gavage, dose level Control
Answers are plain numbers.

// input: 2 compounds below; output: A/G for each
1. O=C(O)c1ccccc1Nc1ccccc1
2. CC(S)C(=O)NCC(=O)O (centres undefined)

Result block:
[0.9, 1.1]

----------
species on record: Rattus norvegicus; assay: Open TG-GATES - Regimen: Single; format: toxicity, organism-based, Sprague-Dawley; design: regimen Single, gender Male, age 6 weeks; conditions: in vivo, po, 0 mg/kg, 24 h, tissue Plasma, route gavage, dose level Control
Observed property: TG (mg/dL)
One number for each entry, in mg/dL.

// known answers, use as guide
- Molecule: "O=c1ccc2ccccc2o1"
  Measure unit: "mg/dL"
  Assay result: 82.8
- Molecule: "COc1cc2ncnc(Nc3ccc(F)c(Cl)c3)c2cc1OCCCN1CCOCC1"
  Measure unit: "mg/dL"
  Assay result: 122.7

// input: 2 molecules below; output: TG for each
1. CN(C/C=C/C#CC(C)(C)C)Cc1cccc2ccccc12
2. CC(S)C(=O)NCC(=O)O (centres undefined)

Result block:
107.8
76.8

----------
species on record: Rattus norvegicus; test: Open TG-GATES - Regimen: Daily Repeat; assay type: toxicity, organism-based, Sprague-Dawley; set-up: regimen Daily Repeat, gender Male, age 6 weeks; details: in vivo, po, 300 mg/kg, 72 h, tissue Blood, route gavage, dose level Middle, time 3 day
Could you please report measured MCH for the items listed next?
Answers are plain numbers, in pg.

// known answers, use as guide
- Compound: "O=C(O)c1ccccc1Nc1ccccc1"
  Measure unit: "pg"
  Assay result: 20.9
- Compound: "CC(=O)[C@@]1(O)CC[C@H]2[C@@H]3C=C(Cl)C4=CC(=O)CC[C@]4(C)[C@H]3CC[C@@]21C"
  Measure unit: "pg"
  Assay result: 20.6
- Compound: "CCCCNC(=O)NS(=O)(=O)c1ccc(C)cc1 [TOLBUTAMIDE]"
  Measure unit: "pg"
  Assay result: 20.8

Briefly, MCH measured for CC(S)C(=O)NCC(=O)O (centres undefined) : 21.1

----------
Could you please report measured APTT for the items listed next?
species: Rattus norvegicus; assay: Open TG-GATES - Regimen: Single; assay type: toxicity, organism-based, Sprague-Dawley; set-up: regimen Single, gender Male, age 6 weeks; settings: in vivo, po, 0 mg/kg, 9 h, tissue Blood, route gavage, dose level Control
Show the value, then the unit it is measured in.

- Compound: "O=C(O)c1ccccc1Nc1ccccc1"
  APTT: "18.2 s"
- Compound: "NS(=O)(=O)c1cc(C(=O)O)c(NCc2ccco2)cc1Cl [FUROSEMIDE]"
  APTT: "19.4 s"
- Compound: "Nc1ccc(Cc2ccc(N)cc2)cc1"
  APTT: "14.5 s"
- Compound: "CC(S)C(=O)NCC(=O)O (configuration not stated)"
  APTT: "22.9 s"
- Compound: "CCO"
  APTT: "20.7 s"
- Compound: "COc1ccc([C@@H]2Sc3ccccc3N(CCN(C)C)C(=O)[C@@H]2OC(C)=O)cc1"
  APTT: "17 s"

// input: 6 compounds below; output: APTT for each
1. CC(=O)[C@@]1(O)CC[C@H]2[C@@H]3C=C(Cl)C4=CC(=O)CC[C@]4(C)[C@H]3CC[C@@]21C
2. CCCCNC(=O)NS(=O)(=O)c1ccc(C)cc1 [TOLBUTAMIDE]
3. CN(CCOc1ccc(CC2SC(=O)NC2=O)cc1)c1ccccn1.O=C(O)/C=C\C(=O)O (configuration not stated) [ROSIGLITAZONE MALEATE]
4. O=c1ccc2ccccc2o1
5. CCN(CC)C(=S)SSC(=S)N(CC)CC
6. CN(C/C=C/C#CC(C)(C)C)Cc1cccc2ccccc12

Result block:
["23.3 s", "15.8 s", "15.7 s", "16 s", "23.3 s", "18.2 s"]

----------
Could you please report measured Plat for the items listed next?
organism: Rattus norvegicus; assay: Open TG-GATES - Regimen: Single; type: toxicity, organism-based, Sprague-Dawley; parameters: regimen Single, gender Male, age 6 weeks; conditions: in vivo, po, 0 mg/kg, 24 h, tissue Blood, route gavage, dose level Control
Numbers only, in x10_4/uL.

- Compound: "COc1ccc([C@@H]2Sc3ccccc3N(CCN(C)C)C(=O)[C@@H]2OC(C)=O)cc1"
  Measure unit: "x10_4/uL"
  Assay result: 119.2

// input: 4 compounds below; output: Plat for each
1. O=c1ccc2ccccc2o1
2. CN(CCOc1ccc(CC2SC(=O)NC2=O)cc1)c1ccccn1.O=C(O)/C=C\C(=O)O (stereo not given) [ROSIGLITAZONE MALEATE]
3. CC(=O)[C@@]1(O)CC[C@H]2[C@@H]3C=C(Cl)C4=CC(=O)CC[C@]4(C)[C@H]3CC[C@@]21C
4. CCN(CC)C(=S)SSC(=S)N(CC)CC

Result block:
[106.5, 124.2, 115.3, 106.2]

----------
species on record: Rattus norvegicus; experiment: Open TG-GATES - Regimen: Daily Repeat; format: toxicity, organism-based, Sprague-Dawley; parameters: regimen Daily Repeat, gender Male, age 6 weeks; settings: in vivo, po, 0 mg/kg, 72 h, tissue Plasma, route gavage, dose level Control, time 3 day
Label True for high-side AST (at or above 70 IU/L) and False for low-side AST (below it).

These recorded examples may help you get a feel for the data.
- Compound: "O=C(O)c1ccccc1Nc1ccccc1"
  Group label: "False"
- Compound: "COc1ccc([C@@H]2Sc3ccccc3N(CCN(C)C)C(=O)[C@@H]2OC(C)=O)cc1"
  Group label: "True"
- Compound: "CCO"
  Group label: "False"
- Compound: "CC(S)C(=O)NCC(=O)O (configuration not stated)"
  Group label: "True"
- Compound: "NS(=O)(=O)c1cc(C(=O)O)c(NCc2ccco2)cc1Cl [FUROSEMIDE]"
  Group label: "False"
- Compound: "CN(C/C=C/C#CC(C)(C)C)Cc1cccc2ccccc12"
  Group label: "False"
- Compound: "CC(=O)[C@@]1(O)CC[C@H]2[C@@H]3C=C(Cl)C4=CC(=O)CC[C@]4(C)[C@H]3CC[C@@]21C"
  Group label: "True"
- Compound: "CN(CCOc1ccc(CC2SC(=O)NC2=O)cc1)c1ccccn1.O=C(O)/C=C\\C(=O)O (configuration not stated) [ROSIGLITAZONE MALEATE]"
  Group label: "False"

Query block: Threshold query (AST >= 70 IU/L) on CCCCC1C(=O)N(c2ccccc2)N(c2ccccc2)C1=O
Result block: False

Query block: Threshold query (AST >= 70 IU/L) on CCCCNC(=O)NS(=O)(=O)c1ccc(C)cc1 [TOLBUTAMIDE]
Result block: True
